# ASSAY_OVERVIEW: A qHTS for Small Molecule Inhibitors of Shiga Toxin
# MEASUREMENT_CONTEXT: Vero cells, Shiga toxin protein synthesis inhibition reporter; at 38.7 µM
Among all 290,000 compounds or so, about 27,000 (9.3%) were called active. Cut-off read from the data, not from the text of the source: active = inhibition mostly above about 28% (no sharp cut-off); inactive = mostly below about 43%. For the sample, actives were picked, then their nearest neighbours and some compounds at random.
# valid calls are y (active), n (inactive); nothing else

Illustrative cases are given below, each with its answer.
[Q] For CN(C)Cc1c(C(=O)N/N=C/c2ccccc2OCc2ccc(F)cc2)nnn1-c1nonc1N , what call appears in the results of this test?
[A] n

[Q] For COc1ccc2c(c1OC)C(=O)OC2c1c(O)nc(SC)n(-c2ccccc2)c1=O (centres undefined) , what call appears in the results of this test?
[A] n

[Q] For O=c1c2c(-c3ccccc3)ccnc2[nH]n1-c1ccccc1 , what call appears in the results of this test?
[A] n

[Q] For CCOc1cc(CN2CCCC(CO)(Cc3ccc(F)cc3F)C2)ccc1OC (centres undefined) , what call appears in the results of this test?
[A] n

[Q] For COc1ccc2c(c1)CCc1c(C(=O)N3CCCC3)noc1-2 , what call appears in the results of this test?
[A] y

[Q] For O=C1CN(C(=O)c2ccccc2F)C(c2ccc(F)cc2)c2cc(F)ccc2N1 (centres undefined) , what call appears in the results of this test?
[A] n

Further cases:
[Q] For CCC(C)N1C(=O)S/C(=C/c2ccc(Sc3nc4ccccc4[nH]3)o2)C1=O (centres undefined) , what call appears in the results of this test?
[A] n

[Q] For Fc1ccc(COc2cccc(-c3n[nH]c(=S)o3)c2)cc1 , what call appears in the results of this test?
[A] n

[Q] For COc1ccc(CCNC(=O)CSCc2ccc(Br)cc2)cc1OC , what call appears in the results of this test?
[A] n

[Q] For Cc1ccc(-n2c(C)cc(C(=O)CSc3nnc4ccccn34)c2C)cc1 , what call appears in the results of this test?
[A] y

[Q] For COc1ccc(-c2c(NC(=O)c3ccco3)oc3ccc(Cl)cc3c2=O)cc1 , what call appears in the results of this test?
[A] n

[Q] For Cc1cc(C)nc(N/N=C/c2ccncc2)n1 , what call appears in the results of this test?
[A] n

[Q] For Cn1c(CC(=O)Nc2ccccc2)nnc1SCC(=O)c1ccccc1 , what call appears in the results of this test?
[A] n

[Q] For Fc1ccc(COc2ccc(-c3nnco3)cc2)cc1 , what call appears in the results of this test?
[A] y

###

# ASSAY_OVERVIEW: A qHTS for Small Molecule Inhibitors of Shiga Toxin
# MEASUREMENT_CONTEXT: Vero cells, Shiga toxin protein synthesis inhibition reporter; at 38.7 µM, hits give high values
The campaign covered roughly 290,000 compounds. About 27,000 (9.3%) were called active. The full list was thinned out, with actives kept by preference.
Kindly return Yes if reported inhibition is no lower than 20%; return No if it is lower.

Illustrative cases are given below, each with its answer.
[Q] inhibition >= 20% for N#CC1=C(N)Oc2c(c(=O)oc3ccccc23)C1c1ccccc1OC(=O)c1cccs1 (stereo not given) ?
[A] No

[Q] inhibition >= 20% for Cc1cc(C)c2c3c(sc2n1)C(c1ccccc1)C(C#N)=C(N)O3 (stereo not given) ?
[A] No

[Q] inhibition >= 20% for Cc1nc2ccccc2cc1C(=O)N/N=C/c1ccc([N+](=O)[O-])cc1 ?
[A] No

[Q] inhibition >= 20% for Cc1ccsc1C(=O)N/N=C/c1ccc([N+](=O)[O-])cc1 ?
[A] Yes

Further cases:
[Q] inhibition >= 20% for CCOc1ccc(CCNC(=O)CCc2nnc3ccc(N4CCCC4)nn23)cc1OCC ?
[A] No
